Each recorded value in this set is attributed to patent US20240117038A1.

# experimental.system: T1, human CX3CR1 (human, UniProt P49238 1-355)
# T1 construct: Overexpressed on CHO K1, Ba/F3 or HEK293T cells; also called huCX3CR1; hCX3CR1
# T1 sequence: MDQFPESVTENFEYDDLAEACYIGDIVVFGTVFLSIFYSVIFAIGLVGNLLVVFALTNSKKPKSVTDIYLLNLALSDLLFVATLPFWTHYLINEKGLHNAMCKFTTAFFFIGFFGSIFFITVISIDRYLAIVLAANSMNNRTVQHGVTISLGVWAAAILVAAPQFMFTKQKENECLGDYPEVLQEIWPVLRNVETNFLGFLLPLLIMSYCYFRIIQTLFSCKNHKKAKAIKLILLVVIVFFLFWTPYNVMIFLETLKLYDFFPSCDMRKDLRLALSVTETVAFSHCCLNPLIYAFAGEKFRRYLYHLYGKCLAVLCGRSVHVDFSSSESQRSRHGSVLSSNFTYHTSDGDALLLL
# assay.remarks: competition flow cytometry vs soluble huCX3CL1-AF647 on CHO K1 huCX3CR1 cells, 30 uM HSA
I'd appreciate it if you could supply IC50 values for the items below.
Numbers only, in nM.

// known answers, use as guide
>>> result_number("A041600026 (VHH, Trivalent ISVD construct; also called 66B02_SO (E1D)-20GS-ALB23002-20GS-66B02_SO-A) DVQLVESGGGSVQPGGSLRLSCAASGSIFSSTAMAWYRQAPGKRRDLVAAINTVGVTKYADSVKGRFTISRDNAKNTVYLQMNSLRPEDTALYYCTSDPRRGWDTRYWGQGTLVTVSSGGGGSGGGGSGGGGSGGGGSEVQLVESGGGVVQPGGSLRLSCAASGFTFRSFGMSWVRQAPGKGPEWVSSISGSGSDTLYADSVKGRFTISRDNSKNTLYLQMNSLRPEDTALYYCTIGGSLSRSSQGTLVTVSSGGGGSGGGGSGGGGSGGGGSEVQLVESGGGSVQPGGSLRLSCAASGSIFSSTAMAWYRQAPGKRRDLVAAINTVGVTKYADSVKGRFTISRDNAKNTVYLQMNSLRPEDTALYYCTSDPRRGWDTRYWGQGTLVTVSSA")
1.1
>>> result_number("A041600010 (VHH, Trivalent ISVD construct (two anti-CX3CR1 ISVDs, one anti-albumin ISVD); also called 66B02_SO (E1D)-9GS-ALB23002-9GS-66B02_SO-A) DVQLVESGGGSVQPGGSLRLSCAASGSIFSSTAMAWYRQAPGKRRDLVAAINTVGVTKYADSVKGRFTISRDNAKNTVYLQMNSLRPEDTALYYCTSDPRRGWDTRYWGQGTLVTVSSGGGGSGGGSEVQLVESGGGVVQPGGSLRLSCAASGFTFRSFGMSWVRQAPGKGPEWVSSISGSGSDTLYADSVKGRFTISRDNSKNTLYLQMNSLRPEDTALYYCTIGGSLSRSSQGTLVTVSSGGGGSGGGSEVQLVESGGGSVQPGGSLRLSCAASGSIFSSTAMAWYRQAPGKRRDLVAAINTVGVTKYADSVKGRFTISRDNAKNTVYLQMNSLRPEDTALYYCTSDPRRGWDTRYWGQGTLVTVSSA")
3.8

Would you mind giving IC50 for every binder in the list below?
1. A041600031 (VHH, Trivalent ISVD construct (two anti-CX3CR1 ISVDs, one anti-albumin ISVD), C-terminal alanine included in the entry; also called 66B02_SO (E1D)-9GS-ALB23002-9GS-54A12_SO-A) DVQLVESGGGSVQPGGSLRLSCAASGSIFSSTAMAWYRQAPGKRRDLVAAINTVGVTKYADSVKGRFTISRDNAKNTVYLQMNSLRPEDTALYYCTSDPRRGWDTRYWGQGTLVTVSSGGGGSGGGSEVQLVESGGGVVQPGGSLRLSCAASGFTFRSFGMSWVRQAPGKGPEWVSSISGSGSDTLYADSVKGRFTISRDNSKNTLYLQMNSLRPEDTALYYCTIGGSLSRSSQGTLVTVSSGGGGSGGGSEVQLVESGGGSVQPGGSLRLSCAASGSIFSSTAMAWYRQAPGKQRDLVAVISTVGITKYADSVKGRFTISRDNAKNTVYLQMNSLRPEDTALYYCTSDARRGWDTRYWGQGTLVTVSSA
2. A041600025 (VHH, Trivalent ISVD construct (two anti-CX3CR1 ISVDs, one anti-albumin ISVD), C-terminal alanine included in the entry; also called 54A12_SO (E1D)-9GS-ALB23002-9GS-54A12_SO-A) DVQLVESGGGSVQPGGSLRLSCAASGSIFSSTAMAWYRQAPGKQRDLVAVISTVGITKYADSVKGRFTISRDNAKNTVYLQMNSLRPEDTALYYCTSDARRGWDTRYWGQGTLVTVSSGGGGSGGGSEVQLVESGGGVVQPGGSLRLSCAASGFTFRSFGMSWVRQAPGKGPEWVSSISGSGSDTLYADSVKGRFTISRDNSKNTLYLQMNSLRPEDTALYYCTIGGSLSRSSQGTLVTVSSGGGGSGGGSEVQLVESGGGSVQPGGSLRLSCAASGSIFSSTAMAWYRQAPGKQRDLVAVISTVGITKYADSVKGRFTISRDNAKNTVYLQMNSLRPEDTALYYCTSDARRGWDTRYWGQGTLVTVSSA

1. 2.1
2. 3.8
